Origin of measurements: patent US6169181A

# collection of Ki values tested on single chain tethered (tandem) HIV protease (HIV-1 M:B_HXB2R, UniProt P04585)

# compound, Ki [nM]
records = [
    ("CCCC1(CCC)CC(O)=C(C(c2cccc(NS(=O)(=O)c3ccc(C(F)(F)F)cn3)c2)C(C)(C)C)C(=O)O1 (single isomer, unassigned) [Example 286]", 13.3),
    ("CCC[C@@]1(CCc2ccc(F)cc2)CC(O)=C([C@@H](c2cccc(NS(=O)(=O)c3ccc(C#N)cn3)c2)C(C)(C)C)C(=O)O1 (single isomer, unassigned)", 0.032),
    ("CCCC1(CCc2ccccc2)CC(O)=C([C@@H](CC)c2cccc(NS(=O)(=O)c3ccc(C(F)(F)F)cn3)c2)C(=O)O1 (some centres unmarked)", 0.031),
    ("CC(C)(C)C(C1=C(O)CC(CCc2ccccc2)(CCc2ccccc2)OC1=O)c1cccc(NS(=O)(=O)c2ccc(C#N)cn2)c1 (single isomer, unassigned)", 16.4),
    ("CCCC1(CCC)CC(O)=C(C(c2cccc(NS(=O)(=O)c3cn(C)cn3)c2)C(C)(C)C)C(=O)O1 (single isomer, unassigned) [Example 318]", 0.019),
    ("CCC[C@@]1(CCc2ccccc2)CC(O)=C([C@H](CC)c2cccc(NS(=O)(=O)c3cn(C)cn3)c2)C(=O)O1 (single isomer, unassigned)", 0.12),
    ("CCCC1(CCc2ccccc2)CC(O)=C(C(c2cccc(NS(=O)(=O)c3cc(C(F)(F)F)ccn3)c2)C(C)(C)C)C(=O)O1 (single isomer, unassigned)", 0.042),
    ("CCC[C@]1(CCc2ccc(F)cc2)CC(O)=C([C@H](c2cccc(NS(=O)(=O)c3ccc(C#N)cn3)c2)C(C)(C)C)C(=O)O1 (single isomer, unassigned)", 1.96),
    ("CCC[C@@]1(CCc2ccc(F)cc2)CC(O)=C([C@@H](c2cccc(NS(=O)(=O)c3cn(C)cn3)c2)C(C)(C)C)C(=O)O1 (single isomer, unassigned)", 0.111),
    ("CCC(C1=C(O)CC(CCc2ccccc2)(CCc2ccccc2)OC1=O)c1cccc(NS(=O)(=O)c2ccc(C#N)cn2)c1 (centres unmarked) [Example 331]", 0.272),
    ("CCC(C1=C(O)CC(CCc2ccccc2)(CCc2ccccc2)OC1=O)c1cccc(NS(=O)(=O)c2cn(C)cn2)c1 (single isomer, unassigned) [Example 324]", 0.156),
]

###

- target: HIV-1 protease (Human immunodeficiency virus type 1 group M subtype B, UniProt P04585)
- protocol: biochemical
- condition.info: read-out: Protease % Inhib
The following compounds are listed with their measured inhibition at 0.37 µM values.

# compound, reading.unit, inhibition at 0.37 µM
rows = [
    ("CCCC1(CCc2ccccc2)CC(O)=C(C(c2cccc(NS(=O)(=O)c3ccc(C#N)cn3)c2)C(C)(C)C)C(=O)O1 (stereo not drawn)", "%", 90.6),
    ("CCCC1(CCc2ccccc2)CC(O)=C(C(CC)c2cccc(NS(=O)(=O)c3cccc4cccnc34)c2)C(=O)O1 (stereo not drawn)", "%", 103),
    ("COc1ccc2c(O)c(C(c3cccc(NS(=O)(=O)c4cn(C)cn4)c3)C3CC3)c(=O)oc2c1 (stereo not drawn)", "%", 80.2),
    ("O=c1oc2c(c(O)c1C(c1cccc(CS(=O)(=O)c3ccccc3)c1)C1CC1)CCCCCC2 (stereo not drawn)", "%", 112),
    ("COCCOCCOCCOc1ccc2c(O)c(C(c3cccc(NS(=O)(=O)c4cn(C)cn4)c3)C3CC3)c(=O)oc2c1 (stereo not drawn)", "%", 115),
    ("CCCC1(CCc2ccccc2)CC(O)=C(C(CC)c2cccc(NS(=O)(=O)c3cn(C)cn3)c2)C(=O)O1 (stereo not drawn)", "%", 102),
    ("COCCOCCOCCOc1ccc2c(O)c(C(c3cccc(NS(=O)(=O)c4ccccn4)c3)C3CC3)c(=O)oc2c1 (stereo not drawn)", "%", 98.2),
    ("Cn1cnc(S(=O)(=O)Nc2cccc(C(c3c(O)cc(C(CC4CC4)CC4CC4)oc3=O)C3CC3)c2)c1 (stereo not drawn)", "%", 106),
    ("O=c1oc(C(CC2CC2)CC2CC2)cc(O)c1C(c1cccc(NS(=O)(=O)c2ccc(F)cc2)c1)C1CC1 (stereo not drawn)", "%", 107),
    ("CCCC1(CCc2ccccc2)CC(O)=C(C(CC)c2cccc(NS(=O)(=O)c3ccc(F)cc3)c2)C(=O)O1 (stereo not drawn) [Example 93A]", "%", 90.4),
    ("CCCCCC1(CCCCC)CC(O)=C(C(CC)c2cccc(NS(=O)(=O)c3cn(C)cn3)c2)C(=O)O1 (stereo not drawn)", "%", 79.6),
    ("CCCC1(CCc2ccccc2)CC(O)=C(C(CC)c2cccc(NS(=O)(=O)c3ccc(C#N)cn3)c2)C(=O)O1 (stereo not drawn)", "%", 99),
]
